assay-info: Leishmania major promastigote growth inhibition, primary screen (AID 1063);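 further: promastigotes grown with compound for 44 hours at 28 °C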
assay-context: Leishmania major promastigotes, resazurin fluorescence viability; at 10 µM
The campaign covered roughly 200,000 compounds. About 18,000 (9%) were called active. No stated cut-off is given here; in the data, active means inhibition above about 50%; inactive means the rest. Only a selection was taken, and actives are over-represented in it overall.
In this exercise, the only acceptable responses are yes = active, no = inactive

molecule: O=[N+]([O-])c1c(NCCO)cc(Sc2nc3ccccc3s2)c2nonc12
category: yes

molecule: CC(=O)Nc1ccc(S(=O)(=O)Oc2ccc(/C=N/N=C3/NC(=O)C(CC(=O)O)S3)cc2)cc1 (configuration not stated)
category: no

molecule: C=CCn1c(=NC(=O)c2cccs2)sc2cc(NC(C)=O)ccc21
category: no

molecule: CC(C)N(C(=O)CSc1nc(COc2ccccc2)nc2ccccc12)C(C)C
category: no

molecule: COc1cc(C(=O)Nc2cc(C(F)(F)F)ccc2-n2cncn2)cc(OC)c1OC
category: no

[ask] Give the logged outcome of this assay for the following molecule: CN1CCN(C(=O)CCc2ncc(C(F)(F)F)cc2Cl)CC1
[reply] no

[ask] Give the logged outcome of this assay for the following molecule: COc1cc(OC)nc(N/N=C(\c2ccccc2)c2ccncc2)n1
[reply] no

* * *

assay-info: Leishmania major promastigote growth inhibition, primary screen (AID 1063);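 further: promastigotes grown with compound for 44 hours at 28 °C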
assay-context: Leishmania major promastigotes, resazurin fluorescence viability; at 10 µM
The campaign covered roughly 200,000 compounds. About 18,000 (9%) were called active. Rule as the data show it: active = inhibition above about 50%; inactive = the rest. Only a selection was taken, and actives are over-represented in it overall.
In this exercise, the only acceptable responses are Y = active, N = inactive

compound: COc1ccc(CCN(C)CCN2C(=O)c3ccccc3C2=O)cc1OC
category: N

Consider now this further compound.
[ask] Give the logged outcome of this assay for the following compound: CCC1CCCCN1C(=S)Nc1ccc(C(C)=O)cc1 (stereo not drawn)
[reply] N

* * *

List of inhibition values.
assay-info: Leishmania major promastigote growth inhibition, primary screen (AID 1063);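 further: promastigotes grown with compound for 44 hours at 28 °C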
assay-context: Leishmania major promastigotes, resazurin fluorescence viability; at 10 µM; stronger effect = higher value
Screen size: about 200,000 compounds; about 18,000 (9%) were called active. The sample holds actives, similar compounds and a random draw of the others, so the mix is not that of the screen.
Respond numerically; units are % and should not be typed.

# annotated cases, reported inhibition shown
compound: CCN1/C(=C/c2ccc3ccc(C)cc3[n+]2CC)Sc2ccccc21
readout-unit: %
numeric-result: 100
--
compound: Cc1cc2cc3c(cc2nc1SCC(=O)Nc1c(C)cccc1C)CCC3
readout-unit: %
numeric-result: 78.9
--
compound: CC(C)C(=O)Nc1oc(-c2ccccc2)cc1C#N
readout-unit: %
numeric-result: 0.64
--
compound: Cc1ccc(N(Cc2ccc(C(=O)Nc3ccccc3C(=O)NCc3ccco3)cc2)S(C)(=O)=O)cc1C
readout-unit: %
numeric-result: 61.3
--
compound: Cc1ccc(NC(=O)C(=O)NCC2CCN(C(=O)c3cccc([N+](=O)[O-])c3)CC2)cc1
readout-unit: %
numeric-result: 23
--
compound: CC12CCC(C(=O)N(c3cccc(Cl)c3)C1=O)C2(C)C (stereo not given)
readout-unit: %
numeric-result: -2.92
--
compound: CCCc1[nH]nc2c1C(c1ccc(OC)c(Cn3nc(C)c(Br)c3C)c1)C(C#N)=C(N)O2 (stereo not given)
readout-unit: %
numeric-result: 41.6
--
compound: COc1cccc(CNC(=O)c2n[nH]c3ccccc23)c1
readout-unit: %
numeric-result: 6.49

[ask] Look at this compound and give its reported inhibition. CCc1ccccc1N(CC(=O)NCCSCc1ccco1)S(C)(=O)=O
[reply] -4.33

[ask] Look at this compound and give its reported inhibition. O=C(Nc1ccccc1)Nc1ccccc1C(=O)NCc1ccco1
[reply] 4.53

[ask] Look at this compound and give its reported inhibition. CC(C)C(=O)Nc1ccc(C(=O)NNC(=O)c2cccs2)cc1
[reply] 66.2

[ask] Look at this compound and give its reported inhibition. CCOC(=O)C1=C(CC)OC(N)=C(C#N)C1c1ccc(F)cc1F (stereo not given)
[reply] 11.4

[ask] Look at this compound and give its reported inhibition. COc1ccc(COC(=O)c2n[nH]c3ccccc23)cc1F
[reply] 97.5

[ask] Look at this compound and give its reported inhibition. CC(CO)NCC12CC3CC(CC(C3)C1)C2 (stereo not given)
[reply] 7.47

* * *

assay-info: Leishmania major promastigote growth inhibition, primary screen (AID 1063);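 further: promastigotes grown with compound for 44 hours at 28 °C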
assay-context: Leishmania major promastigotes, resazurin fluorescence viability; at 10 µM
In all, about 200,000 compounds went through this assay and about 18,000 (9%) were called active. Cut-off read from the data, not from the text of the source: active = inhibition above about 50%; inactive = the rest. Shown is part of a subset that was picked to be rich in actives.
In this exercise, the only acceptable responses are active, inactive

compound: COc1ccccc1N1CCN(CCCCOc2ccc(F)cc2)CC1
category: inactive
--
compound: COc1ccc(/C(=N\O)c2nccc3cc(OC)c(OC)cc23)cc1OC
category: inactive
--
compound: CCN(CC)c1ccc2oc(=O)c(C)nc2c1
category: active
--
compound: Cc1ccccc1CC1(CO)CCCN(Cc2ccc3c(c2)OCCO3)C1 (centres undefined)
category: active
--
compound: Cc1ccc(S(=O)(=O)Nc2nc3ccccc3s2)cc1[N+](=O)[O-]
category: inactive
--
compound: C/C(=N\NC(=O)c1cccnc1)c1ccc(-n2ccnc2)cc1
category: inactive

[ask] Give the logged outcome of this assay for the following compound: COCC1CCCN(Cc2cn[nH]c2-c2cc3ccccc3o2)C1 (centres undefined)
[reply] inactive

[ask] Give the logged outcome of this assay for the following compound: CC1CN(CCOc2ccccc2[N+](=O)[O-])CC(C)O1 (centres undefined)
[reply] inactive

[ask] Give the logged outcome of this assay for the following compound: Cc1ccc2c(C(=O)CN3CCCC3)c(C)[nH]c2c1
[reply] inactive

* * *

assay-info: Leishmania major promastigote growth inhibition, primary screen (AID 1063);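 further: promastigotes grown with compound for 44 hours at 28 °C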
assay-context: Leishmania major promastigotes, resazurin fluorescence viability; at 10 µM
Screen size: about 200,000 compounds; about 18,000 (9%) were called active. Cut-off read from the data, not from the text of the source: active = inhibition above about 50%; inactive = the rest. Shown is part of a subset that was picked to be rich in actives.
In this exercise, the only acceptable responses are active, inactive

Please review the entries below; each comes with its answer.
compound: CCCCN(CC)CCCNC(=O)CS(=O)(=O)Cc1nc(-c2cccc(OC)c2)oc1C
category: active
//
compound: COc1cccc(NC(=O)C(C)Oc2ccccc2)c1 (stereo not given)
category: inactive
//
compound: O=C(Nc1ccc(N2CCOCC2)cc1)c1ccc(-c2ccccc2[N+](=O)[O-])o1
category: inactive

[ask] Give the logged outcome of this assay for the following compound: Cc1ccc(Nc2cc(C)nc3c(C)ccc([N+](=O)[O-])c23)cc1
[reply] active

[ask] Give the logged outcome of this assay for the following compound: CCOc1ccccc1C(=O)NCc1ccco1
[reply] inactive

* * *

assay-info: Leishmania major promastigote growth inhibition, primary screen (AID 1063);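 further: promastigotes grown with compound for 44 hours at 28 °C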
assay-context: Leishmania major promastigotes, resazurin fluorescence viability; at 10 µM
In all, about 200,000 compounds went through this assay and about 18,000 (9%) were called active. Rule as the data show it: active = inhibition above about 50%; inactive = the rest. The entries come from a sample that favours actives as a whole.
In this exercise, the only acceptable responses are true for active, false for inactive

compound: COc1cc2c(cc1O)[C@H](Cc1ccc(Oc3cc(C[C@@H]4NCCc5cc(OC)c(O)cc54)ccc3O)cc1)NCC2
category: false

compound: NC(N)=Nc1nc2ccc(Br)cc2c(=O)[nH]1
category: false

compound: CCN(c1ccc2c(c1)OCO2)S(=O)(=O)c1cc(Br)cc2c1N(C(=O)C1CC1)CC2
category: true

compound: Cc1cc(F)ccc1S(=O)(=O)Nc1ncnc2scc(-c3ccc(F)cc3)c12
category: true

compound: O=C(O)Cc1sc(-c2ccccc2)nc1-c1cccs1
category: false

compound: Cc1nc(N=C(N)N)nc2c(C)cccc12
category: true

compound: O=C1/C(=C\c2ccsc2)NC(=S)N1c1ccccc1
category: false

compound: COc1ccc(-c2csc3ncnc(Oc4ccc5c(C)cc(=O)oc5c4)c23)cc1
category: false

[ask] Give the logged outcome of this assay for the following compound: NC(=O)COc1ccc(C23CC4CC(CC(C4)C2)C3)cc1
[reply] false

[ask] Give the logged outcome of this assay for the following compound: Cc1ccc(O)c(CCc2ccccc2)n1
[reply] true

[ask] Give the logged outcome of this assay for the following compound: COc1cc(OC)c(C(=O)Nc2ccc(N(C)C)cc2)cc1OC
[reply] false

[ask] Give the logged outcome of this assay for the following compound: COc1ccc(-c2csc(NC(=O)c3ccc(N4C(=O)CCC4=O)cc3)n2)cc1OC
[reply] false

[ask] Give the logged outcome of this assay for the following compound: Cc1cccc(OCC(O)Cn2c(=N)n(CCN3CCOCC3)c3ccccc32)c1 (stereo not given)
[reply] false

[ask] Give the logged outcome of this assay for the following compound: O=S(=O)(c1ccc(Br)cc1)n1ccc2ccccc21
[reply] true

* * *

assay-info: Leishmania major promastigote growth inhibition, primary screen (AID 1063);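 further: promastigotes grown with compound for 44 hours at 28 °C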
assay-context: Leishmania major promastigotes, resazurin fluorescence viability; at 10 µM
The whole screen tested about 200,000 compounds, of which about 18,000 (9%) were called active. No stated cut-off is given here; in the data, active means inhibition above about 50%; inactive means the rest. The entries come from a sample that favours actives as a whole.
In this exercise, the only acceptable responses are yes (1) for active, no (0) for inactive

compound: CCCCn1ccnc1C(=O)c1cccc(S(=O)(=O)N2c3ccccc3CC2C)c1 (centres undefined)
category: no (0)

compound: COc1ccc2c(c1)C=CC1(O2)N(CCO)c2ccccc2C1(C)C (centres undefined)
category: yes (1)

compound: CC1CCCC(C)N1CCCNC(=O)c1cc2c(=O)n(C)c3ccccc3c2n1C (centres undefined)
category: no (0)

Consider now this further compound.
[ask] Give the logged outcome of this assay for the following compound: Cc1cc(O)c(NC(=O)c2ccc(C)c([N+](=O)[O-])c2)cc1C
[reply] no (0)
